Reported Ratio EC50 values follow for various compounds
Target Entity: Retinoic acid receptor gamma (Mus musculus) (UniProt P18911)
Sequence (whole entry): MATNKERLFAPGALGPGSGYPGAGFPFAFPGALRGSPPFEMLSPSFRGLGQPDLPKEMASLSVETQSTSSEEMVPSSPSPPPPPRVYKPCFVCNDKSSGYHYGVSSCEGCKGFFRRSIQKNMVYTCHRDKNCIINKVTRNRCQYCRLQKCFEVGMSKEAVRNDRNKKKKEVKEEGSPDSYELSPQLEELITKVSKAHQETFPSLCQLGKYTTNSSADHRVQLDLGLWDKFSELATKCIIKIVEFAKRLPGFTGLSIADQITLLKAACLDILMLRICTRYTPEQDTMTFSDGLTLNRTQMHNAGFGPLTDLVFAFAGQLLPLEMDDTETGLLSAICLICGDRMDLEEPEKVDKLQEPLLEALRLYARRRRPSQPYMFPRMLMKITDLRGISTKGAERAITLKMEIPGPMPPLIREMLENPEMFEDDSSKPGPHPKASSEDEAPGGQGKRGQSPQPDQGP
Procedure Summary: Transactivation of mouse Gal4-fused RARgamma-LBD expressed in COS-7 cells after 1 day by bright-Glo reagent based assay relative to control ATRA
Type: cell-based
Lab note: record just the number, no unit beside it.

CCOc1cc(C(=O)Nc2ccc(C(=O)O)cc2)cc(Cl)c1OC(C)C: 1200

QUERY: Identify measured Ratio EC50 associated with CC(C)Oc1c(Cl)cc(C(=O)Nc2ccc(C(=O)O)cc2)cc1Cl
RESULT: 823

QUERY: Identify measured Ratio EC50 associated with CC1(C)CCC(C)(C)c2c1cc(C(=O)Nc1cc(F)c(C(=O)O)c(F)c1)c(O)c2Cl
RESULT: 9840

QUERY: Identify measured Ratio EC50 associated with O=C(O)c1ccc(NC(=O)c2cc(Cl)c(O)c(Cl)c2)cc1
RESULT: 5000

QUERY: Identify measured Ratio EC50 associated with CCOc1c(OC2CCCC2)cc(C(=O)Nc2ccc(C(=O)O)cc2)cc1OC1CCCC1
RESULT: 550

QUERY: Identify measured Ratio EC50 associated with CC(C)(C)Oc1cc(C(=O)Nc2ccc(C(=O)O)cc2)cc(Cl)c1OC(C)(C)C
RESULT: 162

QUERY: Identify measured Ratio EC50 associated with CC(C)Oc1cc(C(=O)Nc2ccc(C(=O)O)cc2)cc(OC(C)C)c1OC(C)C
RESULT: 225

QUERY: Identify measured Ratio EC50 associated with O=C(O)c1ccc(NC(=O)c2cc(Cl)c(OC3CCC3)c(OC3CCC3)c2)cc1
RESULT: 1060

====

Target Entity: Retinoic acid receptor alpha (Mus musculus)
Sequence (whole entry): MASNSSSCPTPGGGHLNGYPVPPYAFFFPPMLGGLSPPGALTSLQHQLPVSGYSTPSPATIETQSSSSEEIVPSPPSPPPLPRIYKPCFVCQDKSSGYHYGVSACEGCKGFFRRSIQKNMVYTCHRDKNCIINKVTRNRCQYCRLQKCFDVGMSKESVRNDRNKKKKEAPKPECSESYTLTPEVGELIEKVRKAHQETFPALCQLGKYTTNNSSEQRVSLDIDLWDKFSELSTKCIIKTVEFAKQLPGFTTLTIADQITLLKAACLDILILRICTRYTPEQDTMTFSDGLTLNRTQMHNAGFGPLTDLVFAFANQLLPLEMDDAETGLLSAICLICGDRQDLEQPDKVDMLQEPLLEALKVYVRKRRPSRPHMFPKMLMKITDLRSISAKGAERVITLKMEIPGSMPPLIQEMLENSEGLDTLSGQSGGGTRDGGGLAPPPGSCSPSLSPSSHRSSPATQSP
Procedure Summary: Transactivation of mouse Gal4-fused RARalpha-LBD expressed in COS-7 cells after 1 day by bright-Glo reagent based assay relative to control ATRA
Type: cell-based
Ratio EC50 under 7 gets Condition met, anything at or over 7 gets Condition not met.

CCOc1c(Cl)cc(C(=O)Nc2ccc(C(=O)O)cc2)cc1OC1CCC1: Condition met
CCOc1c(Cl)cc(NC(=O)c2ccc(C(=O)O)cc2)cc1Cl: Condition not met
O=C(O)c1ccc(NC(=O)c2cc(Cl)c(OC3CCC3)c(OC3CCC3)c2)cc1: Condition met
CCOc1c(OC2CCCC2)cc(C(=O)Nc2ccc(C(=O)O)cc2)cc1OC1CCCC1: Condition not met
CCOc1cc(C(=O)Nc2ccc(C(=O)O)cc2)cc(Cl)c1OC(C)C: Condition met

QUERY: Below 7 on Ratio EC50? Entry Cc1cc(NC(=O)c2cc(Cl)c(OC(C)C)c(OC(C)C)c2)ccc1C(=O)O
RESULT: Condition met

QUERY: Below 7 on Ratio EC50? Entry COc1c(Cl)cc(C(=O)Nc2ccc(C(=O)O)cc2)cc1Cl
RESULT: Condition not met

QUERY: Below 7 on Ratio EC50? Entry COc1c(Cl)cc(C(=O)Nc2ccc(C(=O)O)c(F)c2)cc1OC(C)C
RESULT: Condition met

QUERY: Below 7 on Ratio EC50? Entry CCOc1c(Cl)cc(C(=O)Nc2ccc(C(=O)O)c(C(F)(F)F)c2)cc1Cl
RESULT: Condition met

QUERY: Below 7 on Ratio EC50? Entry CC(C)Oc1cc(C(=O)Nc2ccc(C(=O)O)cc2)cc(OC(C)C)c1OC(C)C
RESULT: Condition not met

QUERY: Below 7 on Ratio EC50? Entry CCOc1c(Br)cc(C(=O)Nc2ccc(C(=O)O)cc2)cc1Br
RESULT: Condition met

====

Procedure Summary: Oral bioavailability in Sprague-Dawley rat at 10 mg/kg by LC-MS/MS analysis
Format: ADME, organism-based
Run Conditions: in vivo
Assay Readout: bioavailability

QUERY: Identify measured bioavailability associated with CCOc1c(Cl)cc(C(=O)Nc2ccc(C(=O)O)cc2)cc1Cl
RESULT: > 35%

====

Target Entity: Retinoic acid receptor beta (Mus musculus)
Sequence (whole entry): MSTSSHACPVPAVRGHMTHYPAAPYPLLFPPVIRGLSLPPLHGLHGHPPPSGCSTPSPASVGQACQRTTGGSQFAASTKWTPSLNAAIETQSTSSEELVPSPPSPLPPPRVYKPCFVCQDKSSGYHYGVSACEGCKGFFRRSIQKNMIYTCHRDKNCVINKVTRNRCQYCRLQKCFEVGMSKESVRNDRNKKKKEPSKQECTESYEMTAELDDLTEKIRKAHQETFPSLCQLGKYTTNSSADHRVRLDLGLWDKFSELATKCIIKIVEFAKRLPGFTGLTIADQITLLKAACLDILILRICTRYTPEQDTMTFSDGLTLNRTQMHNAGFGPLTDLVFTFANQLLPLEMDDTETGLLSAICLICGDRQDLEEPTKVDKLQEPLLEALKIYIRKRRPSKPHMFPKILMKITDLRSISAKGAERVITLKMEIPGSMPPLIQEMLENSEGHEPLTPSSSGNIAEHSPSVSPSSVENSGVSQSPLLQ
Procedure Summary: Transactivation of mouse Gal4-fused RARbeta-LBD expressed in COS-7 cells after 1 day by bright-Glo reagent based assay relative to control ATRA
Type: cell-based
Classification by Ratio EC50 follows these ranges: zone 1 = under 100, zone 2 = from 100 up to 2000, zone 3 = 2000 and over

O=C(O)c1ccc(NC(=O)c2cc(Cl)c(OC3CCCC3)c(OC3CCCC3)c2)cc1: zone 1

QUERY: // bin(item) where item = CC(C)Oc1c(Cl)cc(C(=O)Nc2ccc(C(=O)O)cc2)cc1Cl
RESULT: zone 2

QUERY: // bin(item) where item = CCOc1c(OC2CCCC2)cc(C(=O)Nc2ccc(C(=O)O)cc2)cc1OC1CCCC1
RESULT: zone 3

QUERY: // bin(item) where item = COc1c(Cl)cc(C(=O)Nc2ccc(C(=O)O)cc2)cc1Cl
RESULT: zone 3

====

Target Entity: MAO-A (Homo sapiens, UniProt P21397)
Sequence (P21397 whole entry): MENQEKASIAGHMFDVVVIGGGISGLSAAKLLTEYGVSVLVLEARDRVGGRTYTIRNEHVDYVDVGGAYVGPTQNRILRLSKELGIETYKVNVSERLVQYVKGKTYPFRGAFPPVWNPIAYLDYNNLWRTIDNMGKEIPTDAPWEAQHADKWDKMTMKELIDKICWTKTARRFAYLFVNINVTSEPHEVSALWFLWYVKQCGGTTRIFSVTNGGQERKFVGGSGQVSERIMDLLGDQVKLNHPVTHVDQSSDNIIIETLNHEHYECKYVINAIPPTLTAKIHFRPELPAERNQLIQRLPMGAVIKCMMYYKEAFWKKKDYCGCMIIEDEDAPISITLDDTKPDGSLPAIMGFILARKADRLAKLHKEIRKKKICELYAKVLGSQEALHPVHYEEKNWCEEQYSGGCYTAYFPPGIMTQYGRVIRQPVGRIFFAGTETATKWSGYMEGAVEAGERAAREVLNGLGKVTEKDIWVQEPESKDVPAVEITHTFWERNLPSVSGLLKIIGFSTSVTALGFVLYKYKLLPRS
Procedure Summary: Binding affinity to human MAO-A at 10 uM after 20 mins by spectrophotometric analysis relative to control
Run Conditions: read-out: Activity
Assay Readout: activity at 20 min, 10 µM

QUERY: Identify measured activity at 20 min, 10 µM associated with CCOc1c(Cl)cc(C(=O)Nc2ccc(C(=O)O)c(C)c2)cc1OC(C)C
RESULT: ≤ 25%

====

Reported Ratio EC50 values follow for various compounds
Target Entity: Retinoic acid receptor gamma (Mus musculus) (UniProt P18911)
Procedure Summary: Transactivation of mouse Gal4-fused RARgamma-LBD expressed in COS-7 cells after 1 day by bright-Glo reagent based assay relative to control ATRA
Format: cell-based
Lab note: record just the number, no unit beside it.

CCOc1cc(C(=O)Nc2ccc(C(=O)O)cc2)cc(OCC)c1OCC: 5880
O=C(O)c1ccc(NC(=O)c2cc(Cl)c(OC3CCCC3)c(OC3CCCC3)c2)cc1: 571
CCCOc1c(Cl)cc(C(=O)Nc2ccc(C(=O)O)cc2)cc1Cl: 1200
CCOc1cc(C(=O)Nc2ccc(C(=O)O)cc2)cc(OC(C)C)c1OCC: 960
CCCCOc1c(Cl)cc(C(=O)Nc2ccc(C(=O)O)cc2)cc1Cl: 1480

Consider the record given below.
QUERY: Identify measured Ratio EC50 associated with COc1c(Cl)cc(C(=O)Nc2ccc(C(=O)O)cc2)cc1Cl
RESULT: 5850
